# Test system: Fibroblast
# experiment_notes: Multiplex assay against human fibroblast
# Assay type: toxicity, cell-based
# recorded_conditions: 48 h, 10 µM, compound concentration 10 uM, replicate 2
Measured Population Hoechst High Intensity Objects (%), listed per entry for reference.
Give the number first and the unit second.

Would you please look over these solved cases?
molecule	assay_system	result
Cc1cccc(NC(=O)CN2CCC(c3ccccn3)CC2)c1.Cl.Cl	Fibroblast	1%
O=C(NCCN1CCC(n2c(=O)[nH]c3cc(Cl)ccc32)CC1)c1ccc(F)cc1 [HALOPEMIDE]	Fibroblast	5%
CC(C)COc1ccc(CNC(=O)N(Cc2ccc(F)cc2)C2CCN(C)CC2)cc1	Fibroblast	6%
CC(C)(C)c1cc(NC(=O)Nc2ccc(-c3cn4c(n3)sc3cc(OCCN5CCOCC5)ccc34)cc2)no1	Fibroblast	3%

### Prompt Enter reported Population Hoechst High Intensity Objects (%) observed with Fibroblast for `CC(C)c1noc(N2CCC(COc3ccc(-c4ccc(S(C)(=O)=O)cc4)nc3)CC2)n1`
### Response 0%

Just for reference, ChEMBL document CHEMBL5058577 is where these values come from.
